System: Trichophyton mentagrophytes
Assay: Antifungal activity against Trichophyton mentagrophytes ATCC 18748 after 5 days by broth dilution method
Format: functional
Conditions: ATCC 18748, 120 h
Assay metric: MIC (µg/mL)

Guide cases for MIC, answers given:
CCCC/C=C/C=O: 25
CCCCCCCC(=O)O [OCTANOIC ACID]: 50
CC(C)=CC=O [3-METHYL-(E)-2-BUTENAL]: 200
CCCCCC(=O)O [HEXANOATE]: 100
CCCCCCCC/C=C/C=O: 1.56

I = CCCCCC/C=C/C=O [2-NONENAL]
II = CCCCCCC/C=C/C=O [TRANS-2-DECENAL]
III = CCCCC/C=C/C=O
Request: Please put the entries in order of rising MIC. Use the labels to give the ranking in the order requested.
Response: II, I, III
(II: 3.13 µg/mL, I: 12.5 µg/mL, III: 25 µg/mL)

---

Test system: Cyberlindnera jadinii
Experiment: Antifungal activity against Candida utilis ATCC 9226 after 2 days by broth dilution method
Format: functional
Conditions: Williopsis jadinii, ATCC 9226, 48 h
Assay metric: MIC (µg/mL)

1 = CC(C)=CC=O [3-METHYL-(E)-2-BUTENAL]
2 = CCCCC/C=C/C=C/C=O
Request: Please indicate which item has the smaller measured MIC: 1 versus 2 // respond with label for picked entry
Response: 2
(2: 25 µg/mL, 1: 800 µg/mL)

---

Tested on: Bacillus subtilis
Assay: Antibacterial activity against Bacillus subtilis ATCC 9372 after 2 days by broth dilution method
Assay type: functional
Settings: ATCC 9372, 48 h
Assay metric: MIC (µg/mL)

# example entries with known answers
CCCCCC(=O)O [HEXANOATE]: 200
CCCCC/C=C/C=C/C=O: 50

P = CCCCCCCC(=O)O [OCTANOIC ACID]
Q = CCCCCCC/C=C/C=O [TRANS-2-DECENAL]
Request: Param pair: P , Q . Output: the one whose MIC is numerically greater. Respond using the label that marks the chosen record.
Response: P

A = CCCC/C=C/C=O
B = CC(C)=CC=O [3-METHYL-(E)-2-BUTENAL]
Request: Lab log: flag the item ( A or B ) with the smaller MIC figure. // return label of chosen record
Response: A

A = CCCCCC/C=C/C=O [2-NONENAL]
B = CCCCCCCC/C=C/C=O
C = CCCCC/C=C/C=O
Request: Hey, quick one: sort these by MIC, low to high? In plain terms: list the labels in the order you were asked to.
Response: B, A, C
(B: 25 µg/mL, A: 50 µg/mL, C: 100 µg/mL)

---

System: Streptococcus mutans
Assay: Antibacterial activity against Streptococcus mutans ATCC […] after 2 days by broth dilution method
Assay type: functional
Details: 48 h
Assay metric: MIC (µg/mL)

CCCCCCCC(=O)O [OCTANOIC ACID]: 1600
CCCCCCCC/C=C/C=O: 50
CCCC/C=C/C=O: 400
CCCCC/C=C/C=C/C=O: 100
CCCCCC/C=C/C=O [2-NONENAL]: 100

1 = CCCCCCC/C=C/C=O [TRANS-2-DECENAL]
2 = CCCCC/C=C/C=O
Request: // max by MIC over [ 1 , 2 ] Write the label of whichever entry you select.
Response: 2
(2: 400 µg/mL, 1: 100 µg/mL)

Cited source: ChEMBL document CHEMBL1150081
